assayedTarget: SARS-CoV-2 Main Protease (SARS-CoV-2)
experimentalSetup: 50.0 µM
Kindly state inhibition for each of the entries shown.
Kindly answer with a numeric value in %, unit omitted.

Endpoint output: inhibition of O=C(CCn1ccnn1)NC(CN1CCOCC1)c1ccccc1 (stereo not given) . Value?
0

Endpoint output: inhibition of O=C(O)[C@@H](Cc1nc(=O)cc[nH]1)NCc1ccc(Cl)s1 (stereo in doubt) . Value?
2.07

Endpoint output: inhibition of `COc1ccc(C(=O)Nc2cccc(/C=C3/C(=O)NC(=O)c4ccccc43)c2)cc1` . Value?
34.2

Endpoint output: inhibition of `CC(=O)Nc1cccc(N2CCCC2=O)c1` . Value?
22.7

Endpoint output: inhibition of `O=C(c1cc(=O)[nH]c2ccccc12)N1CCN(Cc2cccc(Cl)c2)CC1` . Value?
50.9

Endpoint output: inhibition of `O=C(Cc1cccnc1)NCc1ccccc1` . Value?
13

Endpoint output: inhibition of C=CC(=O)N(c1ccc(C2(C)CC2)cc1)C(C(=O)Nc1ccc(OC)cc1)c1cccnc1 (stereo not given) . Value?
0

Endpoint output: inhibition of Cc1ccccc1CN1CCN(C(=O)C(F)C(C)C)CC1 (stereo not given) . Value?
10.3

Endpoint output: inhibition of CNS(=O)(=O)c1ccc(C(C)NC(=O)NC(C)(C)C)cc1 (stereo not given) . Value?
0

Endpoint output: inhibition of C=CC(=O)N(c1ccc(C(F)(F)F)cc1)C(C(=O)NCCc1cccc(F)c1)c1cncc(C#N)c1 (stereo not given) . Value?
96.5

Endpoint output: inhibition of C=CC(=O)N(c1ccc(C(C)(C)C)cc1)C(C(=O)Nc1ccc(OC)cc1)c1cccnc1 (stereo not given) . Value?
0

Endpoint output: inhibition of `Cc1ccncc1NC(=O)Cc1cc(Cl)cc(S(N)(=O)=O)c1` . Value?
64

Endpoint output: inhibition of `CS(=O)(=O)N(CCc1ccccc1)CC1CCN(C(=O)CCl)CC1` . Value?
73.3

Endpoint output: inhibition of C=CC(=O)N(C(C(=O)NC(C)(C)C)c1cccnc1)C1CC12CC(C)(C)C2 (stereo not given) . Value?
3.54

Endpoint output: inhibition of `Cc1cc2c(c(O)c1-c1c(C)cc(O)c3c1C(=O)C=CC3=O)C(=O)C=CC2=O` . Value?
100

Endpoint output: inhibition of `COc1cc(CN2CCN(C(=O)CCl)CC2)c2ccccc2c1` . Value?
100

Endpoint output: inhibition of `Cc1cccc(CS(=O)(=O)N2CCC(C(N)=O)CC2)c1` . Value?
0

Endpoint output: inhibition of C=CC(=O)N(c1ccc(C(C)(C)C)cc1)C(C(=O)Nc1ccccc1OC)c1cccnc1 (stereo not given) . Value?
25.4

Endpoint output: inhibition of CC(C)n1cnnc1CNC(=O)C1CCOc2ccccc21 (stereo not given) . Value?
0

Endpoint output: inhibition of `CCN(c1ccccc1)S(=O)(=O)c1ccc(OC)c(NC(=O)CCl)c1` . Value?
61.2

Endpoint output: inhibition of Cc1ccncc1NC(=O)C1C2CCOCC21 (stereo not given) . Value?
0

Endpoint output: inhibition of CC(C)CCNC(=O)C(CC(C)C)NC(=O)C1OC1C(=O)O (stereo not given) . Value?
0

Endpoint output: inhibition of `N#Cc1ccc(Nc2ccc(NC(=O)Nc3cccnc3)cc2)nc1` . Value?
0

Endpoint output: inhibition of `Nc1nnnn1-c1cccc(C(=O)Nc2c(-c3cccnc3)nc3ccccn23)c1` . Value?
18.3

Endpoint output: inhibition of `Cc1nn(-c2ccccc2)c(Nc2cccc(C(F)(F)F)c2)c1NS(C)(=O)=O` . Value?
-10.6

Endpoint output: inhibition of `O=C(NC[C@@]1(COc2ccc(C(F)(F)F)cn2)C[C@@H](O)[C@@H](O)C1)Nc1cccnc1` . Value?
0

Endpoint output: inhibition of O=C1CN(c2nnc(C3CCC(=O)N3)n2CCn2cc(Cl)cn2)CCN1 (stereo not given) . Value?
35.3

Endpoint output: inhibition of `Cc1ccc(NC(=O)Cc2cc3cccnc3[nH]2)s1` . Value?
7.42

Endpoint output: inhibition of `O=C(NCc1noc2ccccc12)c1ccccc1OCC1CC1` . Value?
0

Endpoint output: inhibition of `Cc1nnc(NC(=O)Cc2cccc(Cl)c2F)n1C` . Value?
0

Endpoint output: inhibition of `Cc1ccncc1NC(=O)CN1C(=O)COc2ccc(Cl)cc21` . Value?
67.2

Endpoint output: inhibition of `Cc1ccncc1NC(=O)CCc1nc2cc(Cl)ccc2o1` . Value?
0

Endpoint output: inhibition of `O=C(CCl)N1CCC(c2nc(-c3cccnc3)nc3ccccc23)CC1` . Value?
100

Endpoint output: inhibition of Cc1ccncc1NC(=O)C12CCC(CO1)C2 (stereo not given) . Value?
0

Endpoint output: inhibition of `N#CCCCOC(=O)c1cccc2c1NC(=O)C2=O` . Value?
0

Endpoint output: inhibition of `O=C(CCl)N1CCN(S(=O)(=O)c2cccs2)CC1` . Value?
97.8

Endpoint output: inhibition of C=CC(=O)N(c1ccc(N(C)C)c(C)c1)C(C(=O)NC(C)(C)C)c1cccnc1 (stereo not given) . Value?
14.4

Endpoint output: inhibition of `Cc1ccc(C)c(N(C)C(=O)Cc2cnn(C)c2C)c1` . Value?
0

Endpoint output: inhibition of `COc1ccc(-n2cc(CN3CCN(C(=O)CCl)CC3)nn2)cc1` . Value?
24.1

Endpoint output: inhibition of `Cc1nnn(NC(=O)Cc2cccc(Cl)c2)c1C` . Value?
28.7

Endpoint output: inhibition of `COc1ccccc1OCCN(C)C(=O)c1cc(=O)[nH]c2cc(F)ccc12` . Value?
0

Endpoint output: inhibition of `CS(=O)(=O)NCCCN1CCCc2ccc(S(N)(=O)=O)cc21` . Value?
0

Endpoint output: inhibition of `COc1cc(CNC(=O)Cc2ncc[nH]2)c2ccccc2n1` . Value?
15.6

Endpoint output: inhibition of `O=C(c1cc(=O)[nH]c2ccccc12)N1CCN(c2cccc(C(F)(F)F)c2)CC1` . Value?
71

Endpoint output: inhibition of CO[C@H](C)C(=O)N(C)c1cnccc1C (stereo in doubt) . Value?
18
